Measured DC50 accompanies every entry in the list below.
Target: TEAD1-GFP in HEK293A cells (Homo sapiens (Human), UniProt P28347)
Sequence (P28347 whole entry): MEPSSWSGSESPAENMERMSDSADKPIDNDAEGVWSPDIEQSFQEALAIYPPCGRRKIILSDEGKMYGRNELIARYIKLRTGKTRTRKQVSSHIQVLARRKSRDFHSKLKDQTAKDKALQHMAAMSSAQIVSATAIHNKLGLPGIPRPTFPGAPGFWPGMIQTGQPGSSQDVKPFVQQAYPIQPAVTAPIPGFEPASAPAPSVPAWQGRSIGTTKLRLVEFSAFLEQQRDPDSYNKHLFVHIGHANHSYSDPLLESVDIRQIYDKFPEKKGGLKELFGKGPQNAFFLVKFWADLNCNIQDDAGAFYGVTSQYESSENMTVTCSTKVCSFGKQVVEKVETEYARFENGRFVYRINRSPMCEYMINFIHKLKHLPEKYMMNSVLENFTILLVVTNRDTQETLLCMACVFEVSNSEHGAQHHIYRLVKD
Assay: TEAD1 protein abundance flow cytometry assay in HEK293A
Assay type: cell-based
Conditions: HEK293A TEAD1-GFP-CHYSEL-mCherry sensor cells, 24 h, GFP signal by flow cytometry
Protocol: Degradation of TEAD1 was measured in HEK293A cells (Invitrogen R70507) expressing TEAD1-GFP and mCherry from a stably integrated bicistronic TEAD1-GFP-CHYSEL-mCherry construct. Reduction of the GFP signal measured by flow cytometry served as readout for TEAD1 degradation after degrader treatment. […] TEAD1 signal for subsequent DC50 curves (concentration at 50% TAED1 degradation). GFP and RFP were read in the channels called FITC and PE, respectively. […]
Reply with just the number (in nM).

COc1ccc(C(=O)N2CCN(CC3CCN(CCNC(=O)[C@H]4CC[C@H](NC[C@]5(c6ccccc6)Oc6cc(F)c(Cl)c(-c7c(C(N)=O)ccc(OC)c7F)c6[C@@H]5C)CC4)CC3)CC2)cc1N1CCC(=O)NC1=O (atropisomer, axis not shown): 6
COc1ccc(C(=O)N2CCN(CC3CN(C(=O)[C@H]4CC[C@H](NC[C@]5(c6ccccc6)Oc6cc(F)c(Cl)c(-c7c(C(N)=O)ccc(OC)c7F)c6[C@@H]5C)CC4)C3)CC2)cc1N1CCC(=O)NC1=O (atropisomer, axis not shown): 112
COc1ccc(C(=O)N2CCC3(CCN(CCNC(=O)[C@H]4CC[C@H](NC[C@]5(c6ccccc6)Oc6cc(F)c(Cl)c(-c7c(C(N)=O)ccc(OC)c7F)c6[C@@H]5C)CC4)CC3)CC2)cc1N1CCC(=O)NC1=O (atropisomer, axis not shown): 35
COc1ccc(C(=O)N2CCC(C3CCN(C(=O)[C@H]4CC[C@H](NC[C@]5(c6ccccc6)Oc6cc(F)c(Cl)c(-c7c(C(N)=O)ccc(OC)c7F)c6[C@@H]5C)CC4)CC3)CC2)cc1N1CCC(=O)NC1=O (atropisomer, axis not shown): 1
COc1ccc(C(N)=O)c(-c2c(Cl)c(F)cc3c2[C@H](C)[C@@](CN[C@H]2CC[C@H](C(=O)N4CCC(CC5CCN(C(=O)COc6ccc(C)c(N7CCC(=O)NC7=O)c6)CC5)CC4)CC2)(c2ccccc2)O3)c1F (atropisomer, axis not shown): 0.3
COc1ccc(C(N)=O)c(-c2c(Cl)c(F)cc3c2[C@H](C)[C@@](CN[C@H]2CC[C@H](C(=O)NCCCCCCCNC(=O)COc4ccc(C)c(N5CCC(=O)NC5=O)c4)CC2)(c2ccccc2)O3)c1F (atropisomer, axis not shown): 3
COc1ccc(C(N)=O)c(-c2c(Cl)c(F)cc3c2[C@H](C)[C@@](CN[C@H]2CC[C@H](C(=O)N4CCC(OC5CCN(C(=O)CCC(=O)N[C@H](C(=O)N6C[C@H](O)C[C@H]6C(=O)N[C@@H](C)c6ccc(-c7scnc7C)cc6)C(C)(C)C)CC5)CC4)CC2)(c2ccccc2)O3)c1F (atropisomer, axis not shown): 27
COc1ccc(C(=O)N2CCC(CC3CCN(C(=O)[C@H]4CC[C@H](NC[C@]5(c6ccccc6)Oc6cc(F)c(Cl)c(-c7c(C(N)=O)ccc(OC)c7F)c6[C@@H]5C)CC4)CC3)CC2)cc1N1CCC(=O)NC1=O (atropisomer, axis not shown): 0.6

The value of DC50 measured for the compound COc1ccc(C(=O)N2CCN(CC3CCN(C(=O)[C@H]4CC[C@H](NC[C@]5(c6ccccc6)Oc6cc(F)c(Cl)c(-c7c(C(N)=O)ccc(OC)c7F)c6[C@@H]5C)CC4)CC3)CC2)cc1N1CCC(=O)NC1=O (atropisomer, axis not shown) turned out to be 2

The value of DC50 measured for the compound COc1ccc(C(N)=O)c(-c2c(Cl)c(F)cc3c2[C@H](C)[C@@](CN[C@H]2CC[C@H](C(=O)NCCCCCc4cccc5c4CN(C4CCC(=O)NC4=O)C5=O)CC2)(c2ccccc2)O3)c1F (stereo partly drawn) turned out to be 0.6

The value of DC50 measured for the compound COc1ccc(C(N)=O)c(-c2c(Cl)c(F)cc3c2[C@H](C)[C@@](CN[C@H]2CC[C@H](C(=O)N4CCC(CC5CCN(C(=O)Cn6cccc(CN7CCC(=O)NC7=O)c6=O)CC5)CC4)CC2)(c2ccccc2)O3)c1F (atropisomer, axis not shown) turned out to be 6

The value of DC50 measured for the compound COc1ccc(C(N)=O)c(-c2c(Cl)c(F)cc3c2[C@H](C)[C@@](CN[C@H]2CC[C@H](C(=O)N4CCC(C5CCN(C(=O)COc6ccc(C)c(N7CCC(=O)NC7=O)c6)CC5)CC4)CC2)(c2ccccc2)O3)c1F (atropisomer, axis not shown) turned out to be 0.5

The value of DC50 measured for the compound COc1ccc(C(N)=O)c(-c2c(Cl)c(F)cc3c2[C@H](C)[C@@](CN[C@H]2CC[C@H](C(=O)N4CCC(OC5CCN(C(=O)COc6ccc(C)c(N7CCC(=O)NC7=O)c6)CC5)CC4)CC2)(c2ccccc2)O3)c1F (atropisomer, axis not shown) turned out to be 0.4

The value of DC50 measured for the compound COc1ccc(C(N)=O)c(-c2c(Cl)c(F)cc3c2[C@H](C)[C@@](CN[C@H]2CC[C@H](C(=O)NCCOCCOCCOCCNC(=O)COc4cc(-c5scnc5C)ccc4CNC(=O)[C@@H]4C[C@@H](O)CN4C(=O)[C@@H](NC(=O)C4(F)CC4)C(C)(C)C)CC2)(c2ccccc2)O3)c1F (atropisomer, axis not shown) turned out to be 20
